system: goldfish; assay: Oral toxicity in goldfish; type: in vivo; details: 10% in diet (PA 800, AT-1493 955, AT-1557 935, AT-1475 923 mg/kg), day 0: 5 fish
ASSAY METRIC: Number of the survival after 5 days from administration
Numbers only.

Please review the entries below; each comes with its answer.
{"MOL": "C=Cn1cc(C(=O)O)c(=O)c2ccc(N3CCNCC3)nc21", "TEST VALUE": 5}
{"MOL": "C=Cn1cc(C(=O)O)c(=O)c2ccc(N3CCN(CC)CC3)cc21", "TEST VALUE": 5}
{"MOL": "CCn1cc(C(=O)O)c(=O)c2cnc(N3CCCC3)nc21", "TEST VALUE": 5}

Q: Missing value: Number of the survival after 5 days from administration, goldfish, entry C=Cn1cc(C(=O)O)c(=O)c2ccc(N3CCN(C)CC3)cc21 . Fill in?
Ans: 5
